# credit: ChEMBL document CHEMBL1123027

System: Human respirovirus 3
experimental.protocol: In vitro against parainfluenza type 3 (para3) virus
Assay type: functional, para influenza virus
condition.details: read-out: ED50 (the source's name)
pEC50: −log10 of the molar value.
observable: pEC50

Would you please give the reported pEC50 of CS(=O)(=O)c1c(C(N)=O)ncn1C1O[C@H](CO)[C@@H](O)[C@H]1O (stereo partly specified) with Human respirovirus 3?
< 2.30

====

Tested on: Rift Valley fever virus
experimental.protocol: In vitro antiviral activity was tested against rift valley fever virus(RVF) virus
Assay type: functional
condition.details: read-out: ED50 (the source's name)
Listed here: items and their measured EC50.

Examples with answers:
NC(=O)c1ncn(C2O[C@H](CO)[C@@H](O)[C@H]2O)c1S (stereo partly drawn) ... > 2000 µM
CCS(=O)(=O)c1c(C(N)=O)ncn1C1O[C@H](CO)[C@@H](O)[C@H]1O (stereo partly drawn) ... > 2000 µM

The record that follows has no EC50 shown yet.
Consider the molecule CCSc1c(C(N)=O)ncn1C1O[C@H](CO)[C@@H](O)[C@H]1O (stereo partly drawn) and give its recorded EC50.
> 2000 µM
